Biological target: Tie2 (Homo sapiens, UniProt Q02763)
Construct: amino acids of the intracellular domain 776-1124
Sequence (Q02763 776-1124): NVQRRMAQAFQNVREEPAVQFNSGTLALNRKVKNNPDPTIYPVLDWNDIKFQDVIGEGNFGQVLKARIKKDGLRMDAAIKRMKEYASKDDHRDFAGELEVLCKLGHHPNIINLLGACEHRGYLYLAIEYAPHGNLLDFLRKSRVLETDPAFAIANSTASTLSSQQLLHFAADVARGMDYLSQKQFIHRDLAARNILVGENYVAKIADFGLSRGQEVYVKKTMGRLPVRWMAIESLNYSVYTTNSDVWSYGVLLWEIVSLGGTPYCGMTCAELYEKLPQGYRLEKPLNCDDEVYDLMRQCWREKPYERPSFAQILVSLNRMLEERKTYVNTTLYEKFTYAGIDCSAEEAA
Assay: Tie2 kinase test, phosphorylation of PLC with GST-Tie2
Conditions: GST-Tie2 intracellular domain 776-1124
Protocol: The coding sequence of human Tie2 corresponding to the amino acids of the intracellular domain 776-1124 was generated by PCR using the cDNA isolated from a human placenta as a model. […] The inhibitory effect of the molecules is determined in a test of phosphorylation of PLC with Tie2 in the presence of GST-Tie2 purified to about 80% homogeneity. […] The kinase activity of Tie2 is measured in a MOPS 20 mM pH 7.2 buffer, containing 10 mM MgCl2, 10 mM MnCl2, 1 mM DTT, 10 mM of glycerophosphate. […]
Quantity: pIC50
The scale used: pIC50 is minus the common logarithm of the concentration in molar units.

- Compound: "CN1CCN(Cc2cccc(C(=O)Nc3n[nH]c4sc(C(=O)NN(C)c5ccccc5)cc34)c2)CC1 [Example 16a]"
  Value observed: 5.49
- Compound: "CN(NC(=O)c1cc2c(NC(=O)c3cccc(CN4CCOCC4)c3)n[nH]c2s1)c1ccccc1 [Example 22a]"
  Value observed: 5.66
- Compound: "COC[C@@H]1CCCN1NC(=O)c1cc2c(NC(=O)c3ccc(N4CCN(C)CC4)cc3)n[nH]c2s1"
  Value observed: 6.79
- Compound: "CC(C)CN(NC(=O)c1cc2c(NC(=O)c3ccc(N4CCN(C)CC4)cc3)n[nH]c2s1)c1ccc(F)cc1"
  Value observed: 7.21
- Compound: "CN(NC(=O)c1cc2c(NC(=O)c3ccc(CN4CCCOCC4)cc3)n[nH]c2s1)c1ccccc1 [Example 21a]"
  Value observed: 6.37

Inquiry: Recorded pIC50 of CN1CCCN(Cc2ccc(C(=O)Nc3n[nH]c4sc(C(=O)NN(C)c5ccc(Cl)cc5)cc34)cc2)CC1 [Example 12b] , please.
Reply text: 6.66

Inquiry: Now consider CCc1ccccc1NNC(=O)c1cc2c(NC(=O)c3ccc(OC)cc3)n[nH]c2s1 and answer again.
Reply text: 7.12

###

molecular target: Aurora2 (Homo sapiens, UniProt O14965); construct: Aurora2: whole recombinant protein comprising an N-terminal histidine tail; His tag (N); test: Aurora2 enzymatic test, NuMA phosphorylation with [33P]ATP, Flashplate; details: whole recombinant protein, 1 μM ATP
Sequence (O14965 whole entry): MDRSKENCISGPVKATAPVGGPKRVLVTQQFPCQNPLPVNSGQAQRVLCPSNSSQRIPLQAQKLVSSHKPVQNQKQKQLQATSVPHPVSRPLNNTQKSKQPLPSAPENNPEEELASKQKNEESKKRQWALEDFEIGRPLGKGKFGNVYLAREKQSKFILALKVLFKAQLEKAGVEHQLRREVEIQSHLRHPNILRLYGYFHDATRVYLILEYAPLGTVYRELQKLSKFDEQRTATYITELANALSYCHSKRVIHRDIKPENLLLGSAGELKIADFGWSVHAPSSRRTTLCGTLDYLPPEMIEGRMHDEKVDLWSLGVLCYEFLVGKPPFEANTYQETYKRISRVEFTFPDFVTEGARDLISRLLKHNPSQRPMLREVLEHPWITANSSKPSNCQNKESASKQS
Overview of recorded pIC50 for various compounds
Please treat pIC50 as minus the base-10 logarithm of the molar concentration.

Consider the following illustrative entries.
- Compound: "COc1ccc(C(=O)Nc2n[nH]c3sc(C(=O)NNC4CCCCC4)cc23)cc1"
  pIC50: 7.35
- Compound: "COC[C@@H]1CCCN1NC(=O)c1cc2c(NC(=O)c3ccc(N4CCN(C)CC4)cc3)n[nH]c2s1"
  pIC50: 7.96
- Compound: "CN(NC(=O)c1cc2c(NC(=O)c3ccc(Br)cc3)n[nH]c2s1)c1ccccc1"
  pIC50: 6.80
- Compound: "COc1ccc(C(=O)Nc2n[nH]c3sc(C(=O)NNCc4ccccc4)cc23)cc1"
  pIC50: 7.64

Inquiry: Consider the compound shown here: CN(NC(=O)c1cc2c(NC(=O)c3ccc(CN4CCNCC4)cc3)n[nH]c2s1)c1ccc(Cl)cc1 [Example 13b] What is its recorded pIC50?
Reply text: 7.07

Inquiry: What about COc1ccc(C(=O)Nc2n[nH]c3sc(C(=O)NNc4ccccc4)cc23)cc1 ?
Reply text: 8.10

Inquiry: For CN(NC(=O)c1cc2c(NC(=O)c3ccc(CN4CCCC4)cc3)n[nH]c2s1)c1ccccc1 [Example 18a] then?
Reply text: 7.85

Inquiry: Check CN(NC(=O)c1cc2c(NC(=O)c3ccc(CN4CCCOCC4)cc3)n[nH]c2s1)c1ccc(Cl)cc1 [Example 21b] too.
Reply text: 7.47

###

Entries and their IC50 values follow.
molecular target: CDK2/cycline E (Homo sapiens, UniProt P24941); assay: CDK2/cyclineE Flashplate test in 96-well format; settings: CDK2/cycline E complex, 1 μM ATP
Please answer using a numeric value trailed by its unit.

Solved cases (3 shown):
- Compound: "COc1ccc(C(=O)Nc2n[nH]c3sc(C(=O)NNc4ccccn4)cc23)cc1"
  IC50: "669 nM"
- Compound: "CCN(CC)CCNCc1ccc(C(=O)Nc2n[nH]c3sc(C(=O)NN(C)c4ccccc4)cc23)cc1 [Example 23a]"
  IC50: "143 nM"
- Compound: "COCCN(NC(=O)c1cc2c(NC(=O)c3ccc(N4CCN(C)CC4)cc3)n[nH]c2s1)c1ccc(F)cc1"
  IC50: "214 nM"

Inquiry: Need IC50, item CC1CN(Cc2ccc(C(=O)Nc3n[nH]c4sc(C(=O)NN(C)c5ccc(Cl)cc5)cc34)cc2)CC(C)N1 (stereo not shown) [Example 11b]
Reply text: 77 nM

###

Entries annotated with measured IC50
target: Aurora2 (Homo sapiens); construct: Aurora2: whole recombinant protein comprising an N-terminal histidine tail; His tag (N); assay: Aurora2 enzymatic test, NuMA phosphorylation with [33P]ATP, Flashplate; conditions: whole recombinant protein, 1 μM ATP
Give just the numeric value; nM need not be written.

Recorded IC50, per entry:
- Molecule: "CCN(NC(=O)c1cc2c(NC(=O)c3ccc(N4CCN(C)CC4)cc3)n[nH]c2s1)c1cccc(Br)c1"
  IC50 (nM): 1
- Molecule: "CCN(CC)CCNCc1ccc(C(=O)Nc2n[nH]c3sc(C(=O)NN(C)c4ccc(Cl)cc4)cc23)cc1 [Example 23b]"
  IC50 (nM): 101
- Molecule: "CN1CCN(Cc2ccc(C(=O)Nc3n[nH]c4sc(C(=O)NN(C)c5ccccc5)cc34)cc2)CC1"
  IC50 (nM): 46

# ---- query molecule ----
Inquiry: Would you mind telling me what IC50 value was observed for CN(NC(=O)c1cc2c(NC(=O)c3ccc(CN4CCCOCC4)cc3)n[nH]c2s1)c1ccccc1 [Example 21a] ?
Reply text: 14

###

IC50 values, listed per item
Molecular target: CDK2/cycline E (Homo sapiens, UniProt P24941)
Experiment: CDK2/cyclineE Flashplate test in 96-well format
Conditions: CDK2/cycline E complex, 1 μM ATP
Experimental: Two recombinant baculoviruses bearing the human sequences coding, respectively, for CDK2 and cyclineE (the latter bearing a C-terminal hexahistidine tag) are used to coinfect Sf21 insect cells. Two to three days after the start of coinfection, the cells are harvested by centrifugation and then stored at −40° C. until the time of use. A format in streptavidin-coated 96-well plates is used to test the activity of the compounds on the kinase activity of CDK2/cycline E. […]
Give a bare numeral; the unit nM is implied.

Observe how each entry below is paired with its result.
- Molecule: "CN1CCN(c2ccc(C(=O)Nc3n[nH]c4sc(C(=O)NN(C)c5ccccc5)cc34)cc2)CC1"
  Quantity: "IC50"
  Quantity unit: "nM"
  Value observed: 121
- Molecule: "CN(NC(=O)c1cc2c(NC(=O)c3ccc(CN4CCOCC4)cc3)n[nH]c2s1)c1ccccc1"
  Quantity: "IC50"
  Quantity unit: "nM"
  Value observed: 134
- Molecule: "CC1CN(Cc2ccc(C(=O)Nc3n[nH]c4sc(C(=O)NN(C)c5ccc(Cl)cc5)cc34)cc2)CCN1 (stereo not shown) [Example 14b]"
  Quantity: "IC50"
  Quantity unit: "nM"
  Value observed: 46
- Molecule: "CN1CCCN(c2ccc(C(=O)Nc3n[nH]c4sc(C(=O)NN(C)c5ccccc5)cc34)cn2)CC1"
  Quantity: "IC50"
  Quantity unit: "nM"
  Value observed: 201
- Molecule: "COc1ccc(C(=O)Nc2n[nH]c3sc(C(=O)NN(C)c4ccccc4)cc23)cc1"
  Quantity: "IC50"
  Quantity unit: "nM"
  Value observed: 97

Inquiry: Which IC50 is listed for CN(NC(=O)c1cc2c(NC(=O)c3ccc(CN4CCC4)cc3)n[nH]c2s1)c1ccccc1 ?
Reply text: 239

Inquiry: Next record, please: CN(NC(=O)c1cc2c(NC(=O)c3ccc(CN4CCCOCC4)cc3)n[nH]c2s1)c1ccc(Cl)cc1 [Example 21b]
Reply text: 82

Inquiry: Now consider CN(NC(=O)c1cc2c(NC(=O)c3ccc(CN4CCCOCC4)cc3)n[nH]c2s1)c1ccccc1 [Example 21a] .
Reply text: 122

Inquiry: Could you do the same for CN(Cc1ccc(C(=O)Nc2n[nH]c3sc(C(=O)NN(C)c4ccccc4)cc23)cc1)c1ccccc1 , please?
Reply text: 1490

Inquiry: CN(NC(=O)c1cc2c(NC(=O)c3ccc(OCCN4CCOCC4)cc3)n[nH]c2s1)c1ccccc1 ?
Reply text: 100

Inquiry: Field entry: CN1CCN(Cc2cccc(C(=O)Nc3n[nH]c4sc(C(=O)NN(C)c5ccc(Cl)cc5)cc34)c2)CC1 [Example 16b]
Reply text: 301

Inquiry: Then what about the molecule CN(NC(=O)c1cc2c(NC(=O)c3ccc(CN4CCNCC4)cc3)n[nH]c2s1)c1ccc(Cl)cc1 [Example 13b] ?
Reply text: 49

Inquiry: And the next one, CN1CCN(c2ccc(C(=O)Nc3n[nH]c4sc(C(=O)NN(C)c5ccc(Cl)cc5)cc34)cc2)CC1 ?
Reply text: 132

Inquiry: Query COc1ccc(C(=O)Nc2n[nH]c3sc(C(=O)NNc4ccccc4C)cc23)cc1 next
Reply text: 428

Inquiry: Here is the next molecule: CN(NC(=O)c1cc2c(NC(=O)c3ccc(CN4CCNCC4)cc3)n[nH]c2s1)c1ccccc1 [Example 13a]
Reply text: 151

Inquiry: Do the same for CCN(CC)Cc1ccc(C(=O)Nc2n[nH]c3sc(C(=O)NN(C)c4ccc(Cl)cc4)cc23)cc1 [Example 15b] please
Reply text: 82

Value source: patent US7595320B2
